Test system: rice (Or)
test-method-notes: Test Example 4: selectivity for a crop plant by flooded paddy field treatment
Assay type: in vivo
Design: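 0-5 phytotoxicity grade; 5 = over 90%; 4 = 70-90%; 3 = 50-70%; 2 = 30-50%; 1 = 10-30%; 0 = under 10%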
condition-summary: rice transplanted at second leaf stage, dose 25 gai/10a, 21st day after treatment, index per Table 44
Exercise: for every item that follows, state its recorded Or (herbicidal effect index on crop).
# output: bare number, no unit

Query: For the compound shown here, Cc1ccc(CC(=O)N(C)C(c2ccccc2)c2cncnc2C(F)(F)F)cc1 (racemic) , give the reported Or (herbicidal effect index on crop).
Response: 0

Query: Reported Or (herbicidal effect index on crop), compound Cc1ccc(CC(=O)N(C)C(c2cncnc2C#N)C(C)C)cc1 (racemic) : ____
Response: 1

Query: # query: Or (herbicidal effect index on crop) of entry CC(C)CC(c1cncnc1C(F)(F)F)N(C)C(=O)Cc1cccc(F)c1 (racemic)
Response: 0

Query: Fill in: Or (herbicidal effect index on crop) of CN(C(=O)Cc1ccc(Cl)cc1)C(c1ccccc1F)c1cncnc1C(F)(F)F (racemic) is ___
Response: 1

Query: I am curious: what Or (herbicidal effect index on crop) value has been reported for CC(=O)c1ncncc1C(C(C)C)N(C)C(=O)Cc1ccc(Cl)cc1 (racemic) ?
Response: 1

Query: // returns reported Or (herbicidal effect index on crop) for input CCN(C(=O)Cc1ccsc1)C(c1cncnc1C(F)F)C(C)C (racemic)
Response: 0

Query: Bench note: what Or (herbicidal effect index on crop) did CN(C(=O)Cc1cccs1)C(c1ccccc1)c1cncnc1C(F)(F)F (racemic) show?
Response: 1

Query: # lookup: Or (herbicidal effect index on crop) of CC(C)C(c1cncnc1C(F)(F)F)N(C)C(=O)C(C)(C)c1ccc(Cl)cc1 (racemic)
Response: 1
